Measured selective drug sensitivity score of individual entries
Test system: COG-LL-402h
Test: selective drug sensitivity score (sDSS, relative to normal bone marrow) (sDSS (score)); higher = more potent and effective on the cell line relative to normal bone marrow cells;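 note: ALL cell lines in 384-well plates, five doses spanning 10,000-fold, each plate scaled between vehicle and 100 µmol/L benzalkonium chloride controls, sDSS an adapted area-under-curve metric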
Settings: 72 h
Answer with a bare number; do not write a unit.

O=C(Nc1c[nH]nc1-c1nc2ccc(CN3CCOCC3)cc2[nH]1)NC1CC1 [AT9283] (top concentration 1000 nM) :: 7.72
Cc1cc2c(F)c(Oc3ncnn4cc(OC[C@@H](C)O)c(C)c34)ccc2[nH]1 [Brivanib] (top concentration 1000 nM) :: -0.04
CC(O)(CS(=O)(=O)c1ccc(F)cc1)C(=O)Nc1ccc(C#N)c(C(F)(F)F)c1 (stereo unspecified) [Bicalutamide] (top concentration 10000 nM) :: -1.68
CN(C)C1CCN(C(=O)c2ccc(NC(=O)Nc3ccc(-c4nc(N5CCOCC5)nc(N5CCOCC5)n4)cc3)cc2)CC1 [Gedatolisib] (top concentration 1000 nM) :: 8.56
Cc1c(-c2c(-c3ccc(F)o3)sc3ncnc(O[C@H](Cc4ccccc4OCc4ccnn4CC(F)(F)F)C(=O)O)c23)ccc(OCCN2CCN(C)CC2)c1Cl (top concentration 1000 nM) :: 6.06

selective drug sensitivity score for Nc1ncnc2c1c(-c1cccc(OCc3ccccc3)c1)cn2[C@H]1C[C@@H](CN2CCC2)C1 [NVP-AEW541] (top concentration 10000 nM) ?
-0.72

Now the molecule CO[C@H](C(=O)[C@@H](O)[C@@H](C)O)[C@@H]1Cc2cc3cc(O[C@H]4C[C@@H](O[C@H]5C[C@@H](O)[C@H](O)[C@@H](C)O5)[C@@H](O)[C@@H](C)O4)c(C)c(O)c3c(O)c2C(=O)[C@H]1O[C@H]1C[C@@H](O[C@H]2C[C@@H](O[C@H]3C[C@](C)(O)[C@H](O)[C@@H](C)O3)[C@H](O)[C@@H](C)O2)[C@H](O)[C@@H](C)O1 [Plicamycin] (top concentration 10000 nM)
2.34

Next record, please: C[C@H]1CN(C2COC2)CCN1c1ccc(Nc2cc(-c3ccnc(N4CCn5c(cc6c5CC(C)(C)C6)C4=O)c3CO)cn(C)c2=O)nc1 [GDC-0853] (top concentration 1000 nM)
1.1

And CN[C@@H](C)C(=O)N[C@H](C(=O)N1CCC[C@H]1c1nc(C(=O)c2ccc(F)cc2)cs1)C1CCCCC1 [NVP-LCL161] (top concentration 25000 nM) ?
-5.42

Same for COc1cc(Nc2c(C#N)cnc3cc(OCCCN4CCN(C)CC4)c(OC)cc23)c(Cl)cc1Cl [Bosutinib] (top concentration 10000 nM)
5.66

Try the molecule COc1cc(Nc2ncc3c(n2)-c2ccc(Cl)cc2C(c2c(F)cccc2OC)=NC3)ccc1C(=O)O [Alisertib] (top concentration 10000 nM)
16.1

* * *

Test system: MOLT-14
Assay: selective drug sensitivity score (sDSS, relative to normal bone marrow) (sDSS (score)); higher = more potent and effective on the cell line relative to normal bone marrow cells
Settings: 72 h
Lab note: compare selective drug sensitivity score against 1. Equal or greater, write true (1). Smaller, write false (0).

Example cases with answers are listed next.
CC1(C)CCC(CN2CCN(c3ccc(C(=O)NS(=O)(=O)c4ccc(NCC5CCOCC5)c([N+](=O)[O-])c4)c(Oc4cnc5[nH]ccc5c4)c3)CC2)=C(c2ccc(Cl)cc2)C1 [Venetoclax] (top concentration 1000 nM) :: true (1)
CC(C)[C@H]1C(=O)N[C@@H](CCCNC(=N)N)C(=O)NCC(=O)N[C@@H](CC(=O)O)C(=O)N[C@H](Cc2ccccc2)C(=O)N1C [Cilengitide] (top concentration 10000 nM) :: false (0)
O=C(Nc1cnn2ccc(N3CCC[C@@H]3c3cc(F)ccc3F)nc12)N1CC[C@H](O)C1 [Larotrectinib] (top concentration 1000 nM) :: false (0)
CN[C@@H](C)C(=O)N[C@H](C(=O)N1CCC[C@H]1c1nc(C(=O)c2ccc(F)cc2)cs1)C1CCCCC1 [NVP-LCL161] (top concentration 25000 nM) :: false (0)
CN(Cc1cnc2nc(N)nc(N)c2n1)c1ccc(C(=O)N[C@@H](CCC(=O)O)C(=O)O)cc1 [Methotrexate] (top concentration 5000 nM) :: true (1)

Is the recorded value of selective drug sensitivity score equal to or greater than 1 for this compound? Cc1[nH]nc(C(F)(F)F)c1Cc1sc2c(c1C(=O)N1C[C@](C)(O)CO1)c(=O)n(C)c(=O)n2C(C)C [AZD3965] (top concentration 1000 nM)
false (0)

Here is the next compound: Cn1ncc(Cl)c1-c1cc(C(=O)N[C@H](CN)Cc2ccc(F)c(F)c2)oc1Cl [Uprosertib] (top concentration 10000 nM)
true (1)

What do you have for CC(=O)c1c(C)c2cnc(Nc3ccc(N4CCNCC4)cn3)nc2n(C2CCCC2)c1=O [Palbociclib] (top concentration 10000 nM) ?
true (1)

What do we get for O=C1CCC(N2C(=O)c3ccccc3C2=O)C(=O)N1 (stereo not drawn) [Thalidomide] (top concentration 10000 nM) ?
false (0)

Same question for O=C(Nc1ccc2[nH]nc(-c3ccncc3)c2c1)[C@@H]1CCN(CC(=O)N2CCN(c3ccc(-c4ncccn4)cc3)CC2)C1 (top concentration 10000 nM) please.
true (1)
